system: E. coli (BL21) bacteria; assay: In vitro inhibition of E. coli (BL21) growth on LB agar plates, dark or irradiated; format: cell-based; conditions: dark, aerobic; 0.3 ppm (Example 1 composition: Zn(II) 0.15 ppm + TMPyP 0.15 ppm); 10 minutes; plates after 48 hours
value_type: inhibition of growth of E. coli

CC1(C)S[C@@H]2[C@H](NC(=O)[C@H](N)c3ccccc3)C(=O)N2[C@H]1C(=O)O = Almost no inhibition
[Fe+2] = zero inhibition
[Mn+2] = zero inhibition
O=C(N[C@H](CO)[C@H](O)c1ccc([N+](=O)[O-])cc1)C(Cl)Cl = Almost no inhibition
